The reported measurements were obtained from paper PMC7651859.

# experiment: Rat dose-escalation PK study
# Format: in vivo
# conditions used: blood, 300 mg kg^–1
measurement label: Cmax
Include the unit right after the number.

Recorded Cmax (compound "O=C(Cc1ccc(F)c(F)c1)N1CCC(Nc2ncc3c(N4CCOCC4)n[nH]c3n2)CC1" ): 6760 ng/mL

====

# experiment: Aqueous solubility, values marked with ref 12
# Format: physicochemical
# conditions used: values marked [12] in the table (method of ref 12, not CAD)
measurement label: solubility (µM)
Report only the number, with the unit µM understood.

Recorded solubility (molecule COc1ccccc1-c1n[nH]c2nc(NC3CCN(c4ccc(Cl)nn4)CC3)ncc12 [Compound 41] ): 4

====

# experiment: CAD kinetic aqueous solubility
# Format: physicochemical
# conditions used: pH 7.4, pH7.4 phosphate buffered saline
measurement label: solubility at 1 h

O=C(CC1CC1)N1CCC(Nc2ncc3c(-c4ccccn4)n[nH]c3n2)CC1: ≥ 392 µM

Recorded solubility at 1 h (molecule "Cn1nccc1-c1n[nH]c2nc(NC3CCN(C(=O)Cc4ccc(F)cc4F)CC3)ncc12" ): 30 µM

Recorded solubility at 1 h (molecule "COc1ccccc1-c1n[nH]c2nc(NC3CCN(C(=O)N4CCOCC4)CC3)ncc12" ): 79 µM

Recorded solubility at 1 h (molecule "O=C(Cc1ccc(F)cc1F)N1CCC(Nc2ncc3c(-c4ccccc4)n[nH]c3n2)CC1" ): < 1 µM

Recorded solubility at 1 h (molecule "O=C(CC1CC1)N1CCC(Nc2ncc3c(C4CCOCC4)n[nH]c3n2)CC1" ): ≥ 496 µM

Recorded solubility at 1 h (molecule "COc1ccccc1-c1n[nH]c2nc(NC3CCN(C(=O)CC4CC4)CC3)ncc12" ): 22 µM

Recorded solubility at 1 h (molecule "CC(C)Cc1n[nH]c2nc(NC3CCN(C(=O)c4ccccc4)CC3)ncc12" ): 291 µM

Recorded solubility at 1 h (molecule "O=C(Cc1ccc(F)cc1F)N1CCC(Nc2ncc3c(C4CC4)n[nH]c3n2)CC1" ): 39 µM
